# Tested on: IGROV1 ovarian
# method.description: NCI-60 one-dose screen, 48 h
# cond: 10 µM unless noted
The panel holds about 83,000 compounds, 20% with a hit somewhere; the sample as a whole holds those more often. The source made the active and inactive calls. Rule for the calls: active = growth percent below 10; inactive = the rest.
Classes used: active, inactive

Cc1c(N2CN3C[C@H](C)N4CN(c5c(C)n(C)n(-c6ccccc6)c5=O)CN5C[C@@H](C)N(C2)C3C54)c(=O)n(-c2ccccc2)n1C (some centres undefined) ... inactive
CCCCCSB(SCCCCC)c1ccccc1 ... inactive
COc1ccc(Cl)cc1Nc1nc(C(F)(F)F)ccc1C(=O)N/N=C/c1ccccc1Cl ... active
COc1cc(/C=C2\CN(S(=O)(=O)c3ccc(C)cc3)C/C(=C\c3cc(CN4CCCCC4)c(O)c(OC)c3)C2=O)cc(CN2CCCCC2)c1O ... active
CCCCCCNc1nc(NCCCCCC)c2[nH]c(NCCCCCC)nc2n1 ... inactive
N=C(N)SCc1cccc2c(CSC(=N)N)cccc12 ... inactive
CCC/C(=N\NC(N)=O)C(OC)OC ... inactive
Cn1c(=O)c2c(nc(NC3=NS(=O)(=O)c4ccccc43)n2Cc2ccccc2)n(C)c1=O ... inactive
COc1ccc2[nH]cc(-c3nc(-c4cn(C)c5ccncc45)cs3)c2c1 ... active
CC[C@]12C=CCN3CC[C@@]4(c5ccc(OC)cc5N(C)[C@H]4[C@@](O)(C(=O)OC)[C@@H]1OC(=O)CCCN1CCOCC1)[C@@H]32 ... inactive
COc1ccc(C2=NN(C(C)=O)C(c3ccc(Oc4ccnc5cc(Cl)ccc45)c(OC)c3)C2)cc1 (centres undefined) ... inactive
O=C(CCl)Nc1ccc2c(Nc3cc(O)ccc3Cl)ncnc2c1 ... active
COC1=CC(c2ccc[nH]2)=N/C1=C\c1[nH]c(C)c(CC(=O)OCc2ccccc2)c1C ... active
CC(/C=C1\SC(=S)N(CC(=O)NC(Cc2c[nH]c3ccccc23)C(=O)O)C1=O)=C\c1ccccc1 (centres undefined) ... inactive
Cc1[nH]c(/C=C/C(=O)c2ccc(C(F)(F)F)c(F)c2)c(C)c1C(=O)NCC(C)C ... inactive
COc1cc(N2C(=O)[C@H](c3ccccc3)C2c2ccc(SC)cc2)cc(OC)c1OC (some centres undefined) ... inactive
CCC(CC)(N(CC(=O)O)CC(=O)O)C(CC)(CC)N(CC(=O)O)CC(=O)O ... inactive
Oc1c(Cl)cc(Cl)c2ccc(Cn3cc(-c4cccc(C(F)(F)F)c4)nn3)nc12 ... inactive
O=C1N[C@@H]2[C@@H](O)[C@@H](O)[C@H](O)C[C@H]2c2cc3c(c(O)c21)OCCO3 ... active
Nc1n[nH]c2ccc([C@@H]3Nc4cc5[nH]ncc5cc4[C@H]4C5CCC(C5)[C@@H]34)cc12 (some centres undefined) ... inactive
CCOc1ccc(NC(=O)c2cc(OC)c(OC)c(OC)c2)cc1 ... inactive
N#CCC1=NC(c2cccs2)=Nc2ccccc2S1 ... inactive
COC(=O)Cc1nc(C#N)c(N(C)C)o1 ... inactive
COc1ccc2cc(Cn3cc[n+](Cc4ccc5ccccc5c4)c3)ccc2c1 ... active
O=C1Nc2ccccc2C2c3cccn3-c3ccccc3N12 (centres undefined) ... inactive
Cn1cc(-c2nc(-c3c[nH]c4ccncc34)cs2)c2cc(Br)ccc21 ... active
O=C(Nc1cccnc1Nc1ccc(Cl)cc1)c1cn(Cc2ccc(F)cc2)nn1 ... inactive
O=C(Cn1nnc2ccccc21)N/N=C/c1ccccc1F ... inactive
COc1cc(/C=C2\C(=O)N(c3c(Cl)cccc3Cl)c3ccccc32)cc(OC)c1OCCCCCCn1c2ccccc2c(=O)c2ccccc21 ... inactive

###

# Test system: OVCAR-3 ovarian
# method.description: NCI-60 one-dose screen, 48 h (100 = growth as untreated, 0 = no growth, -100 = all killed)
# cond: 10 µM unless noted
About 83,000 compounds went through this panel and 20% of them were active in at least one assay; those are over-represented in the sample as a whole.
Classify: Condition met when growth is strictly less than 20%; Condition not met when growth is not.

Cc1cccc(-n2c(C)nc3ccc(N4CCCNC4=O)cc3c2=O)c1 ... Condition not met
COc1cc(-c2nc(SCCC(C)C)nc(N3CCOCC3)c2C#N)cc(OC)c1OC ... Condition met
CC(C)c1ccc(C(=O)Nc2sc3cc(O)ccc3c2C#N)cc1 ... Condition met
COc1cc2ncnc(Nc3ccc(F)c(Cl)c3)c2cc1OCC(=O)N1CCN(c2ccc(F)cc2)CC1 ... Condition not met
Oc1c(CN2CCCC2)cc(COCc2ccccc2)c2cccnc12 ... Condition met
COc1ccc(C(O)c2cc3c(N)c(C(=O)Nc4cccc(Cl)c4)sc3nc2C)cc1 (centres undefined) ... Condition met
CC/C=C1/C(=O)C=C[C@@H]1C/C=C\CCCC(=O)OC ... Condition not met
Cn1cc(-c2nonc2-c2c[nH]c3ccc(F)cc23)c2cc(Br)ccc21 ... Condition not met
N=C(N)c1ccc(-c2ccc(-c3ccc(Cl)cc3)o2)o1 ... Condition met
CCCCCCC(CCCC)COC(=O)c1ccc(Cl)cc1 (centres undefined) ... Condition not met
C=C1C(=O)O[C@H]2[C@H]1CC/C(COC(=O)/C=C\C(=O)NCc1ccc(Cn3c(=O)sn(-c4ccccc4)c3=O)cc1)=C\CC[C@@]1(C)O[C@@H]21 ... Condition not met
CC(=O)Nc1c(Cl)cc(Cl)c2c1Cc1cc([N+](=O)[O-])ccc1-2 ... Condition not met
Cc1cc2nc3c4ccccc4n(CCN(C)C)c3nc2cc1C ... Condition met
O=C(CN1C(=O)/C(=C/c2ccco2)SC1=S)NCCc1c[nH]c2ccc(F)cc12 ... Condition not met
CCOC(=O)Nc1nc2ccc(SCC(C)C)cc2s1 ... Condition met
COc1cc(C(=O)/C=C/c2ccc(N3CCN(C)CC3)cc2)cc(OC)c1OC ... Condition not met
O[C@@H](c1cc(C(F)(F)F)nc2c(C(F)(F)F)cccc12)[C@H]1CCCCN1 ... Condition not met
CCN(C(=O)N1CCN(c2cc3c(cc2F)c(=O)c(C(=O)O)cn3C2CC2)CC1)c1nc(-c2ccc(C)cc2)cs1 ... Condition met
CO[C@H](C(=O)[C@@H](O)[C@@H](C)O)[C@@H]1Cc2cc3cc(O[C@H]4C[C@@H](O[C@H]5C[C@@H](O)[C@H](O)C(C)O5)[C@H](O)C(C)O4)c(C)c(O)c3c(O)c2C(=O)[C@H]1O[C@H]1C[C@@H](O[C@H]2C[C@@H](O[C@H]3C[C@@H](OC)[C@H](O)C(C)O3)[C@@H](O)C(C)O2)C(O)(O)C(C)O1 (some centres undefined) ... Condition met
O=C1c2cc3c(cc2-c2c1c1ccc(Cl)cc1c(=O)n2C[C@H](O)CO)OCO3 ... Condition met
COc1ccc2cc(-c3cnc4nonc4n3)ccc2c1 ... Condition met
CCN(CC)c1ccc(/C=N/NC(=O)c2ccc(Nc3ccnc(C(F)(F)F)c3)cc2)c(O)c1 ... Condition not met
CC1(C)CC[C@]2(C(=O)O)CC[C@]3(C)C(=CC[C@@H]4[C@@]5(C)C[C@@H](Cc6cn([C@@H]7O[C@H](CO)[C@@H](O)[C@H](O)[C@H]7O)nn6)[C@H](O)C(C)(C)[C@@H]5CC[C@]43C)[C@@H]2C1 ... Condition not met
CS(=O)(=O)Nc1cncc(-c2ccc3ncnc(Nc4ccc(F)c(Cl)c4)c3c2)c1 ... Condition not met

###

# System: A549/ATCC NSCLC
# method.description: NCI-60 one-dose screen, 48 h
# cond: 10 µM unless noted
About 83,000 compounds went through this panel and 20% of them were active in at least one assay; those are over-represented in the sample as a whole. The source made the active and inactive calls. The calls were made as follows: active = growth percent below 10; inactive = the rest.
Outcomes: true (1) = active, false (0) = inactive

COc1cc(C(=O)/C=C/c2c(-c3cccs3)nc3ccccn23)cc(OC)c1OC ... false (0)
COc1cc2ncnc(Nc3ccc(F)c(Cl)c3)c2cc1OCC(=O)N1CCN(c2ccc(F)cc2)CC1 ... false (0)
CS(=O)(=O)Nc1cncc(-c2ccc3ncnc(Nc4ccc(F)c(Cl)c4)c3c2)c1 ... false (0)
C=C(CO)[C@@H]1CC[C@]2(COC3CCCCO3)CC[C@]3(C)[C@H](CC[C@@H]4[C@@]5(C)C=C(C=O)C(=O)C(C)(C)[C@@H]5CC[C@]43C)[C@@H]12 (some centres undefined) ... true (1)
COc1cc(C(=O)C(=O)c2cc(OC)c(O)c(OC)c2)cc(OC)c1O ... false (0)
O=C1CC2C=CCN2C=C1NC(=O)C1CCCCC1 (centres undefined) ... false (0)
CCCCNC1=C(OCC)C(=O)c2ccccc2C1=O ... false (0)
CS(=O)(=O)Cc1cnc(C2OCCO2)s1 ... false (0)
c1ccc(CNc2ccc3nc(CCC4CCCCC4)[nH]c3c2)cc1 ... false (0)
COc1ccc(C(c2cc(OC)c(OC)c(OC)c2)N2CCN(Cc3ccccc3)CC2)cc1 (centres undefined) ... false (0)
COc1cccc(NC(=O)c2cccc(C3CCc4c(cc(OC)c(OC)c4OC)O3)c2)c1 (centres undefined) ... false (0)
COc1cc(Nc2c3ccc(Cl)cc3nc3ccc(OC)cc23)c2ncccc2c1 ... false (0)
S=c1ssnc1-c1cccs1 ... false (0)
Nc1ccc([N+](=O)[O-])cc1N=C/C=C/c1ccccc1 ... false (0)
Cn1c(/C=C/[N+](=O)[O-])cc2ccccc21 ... false (0)
CCn1cc(C2=C(c3cn(C)c4ncccc34)C(=O)NC2=O)c2cccnc21 ... false (0)
CC1(C)C2CC=C(/C=N/NC(=O)C3CCC(=O)N3)C1C2 (centres undefined) ... false (0)
Cc1cc(N2CCCCC2)nc(N2CCN(CC(=O)Nc3ccc4c(ccn4Cc4ccccc4)c3)CC2)n1 ... false (0)
COc1cc(/C=C/c2cc(/C=C/c3ccc(O)c(OC)c3)n(C(=O)Nc3ccc(F)cc3)n2)ccc1O ... false (0)
C#Cc1cccc(Oc2ccc(NC(=O)CCl)cc2)c1 ... false (0)
O=C(Nc1cccc(NC(=O)C2CCCCC2)c1)c1ccccn1 ... false (0)
C=CC(=O)N1CCN(c2ccc3cccc(NC(=O)c4cnc(C)cn4)c3n2)CC1 ... false (0)
Clc1nccc2c(-c3csc(-c4c[nH]c5ccccc45)n3)c[nH]c12 ... false (0)
O=C1CCC(C(=O)NN(c2ccccc2)c2ccccc2)N1 (centres undefined) ... false (0)
COc1cc(-c2nc3ccc(C)cc3[nH]2)ccc1OCC(=O)N=Nc1c(O)[nH]c2ccc(Cl)cc12 ... false (0)
CCN(CC)CCCC(C)Nc1ccc2cc(OC)ccc2n1 (centres undefined) ... false (0)
Cc1c2ccccc2nc2c1ccc1cccnc12 ... false (0)
COc1ccc2[nH]cc(-c3nc(-c4cn(C)c5ccncc45)cs3)c2c1 ... true (1)
Cc1ccc(/C=C(\C#N)C(=O)Nc2ncc(Cc3cc(Cl)ccc3Cl)s2)o1 ... false (0)
Cc1nc2sc(C(=O)Nc3ccc(Cl)cc3)c(N)c2cc1C(O)c1ccccc1 (centres undefined) ... false (0)
O=C(O)c1cccc(N/C=C/C(=O)c2cc3cc(Br)ccc3oc2=O)c1 ... false (0)
COc1cc(N2C(=O)[C@H](c3ccccc3)C2c2ccc(SC)cc2)cc(OC)c1OC (some centres undefined) ... true (1)
CC[C@H](Nc1nc(N)nc(C)c1C#N)c1nc2cccc(NCCCCCC(=O)NO)c2c(=O)n1-c1ccccc1 ... false (0)
O=C(NCc1ccc2c(c1)OCO2)NCC1CCCC(CNC(=O)NCc2ccc3c(c2)OCO3)C1 (centres undefined) ... false (0)
